Data provenance is PubChem BioAssay (NCI).

Each entry below lists one item and its recorded GI50 value.
Test system: NCI-H522 lung
Assay: NCI tumour cell line growth inhibition, 48 h

The following compounds have reported results that may help.
CCCCCCCCCCCCNC(=O)N[C@H](C(=O)N[C@H]1/C=C/OCCNC(=O)/C=C/[C@H](C(C)C)NC1=O)C(C)C ... 372 nM
C=CN(C(=O)N1CCN(c2cc3c(cc2F)c(=O)c(C(=O)O)cn3C2CC2)CC1)c1nc(-c2ccc(C)cc2)cs1 ... 2270 nM
O=c1c2cc(F)ccc2sc2c(NCCCNCCO)nc3ccc(F)cc3c12 ... 1910 nM
O=C(CNC(=O)c1cccc2ccccc12)Nc1ccccc1Oc1ccc(O)cc1 ... 852 nM
C=C1C(=O)O[C@H]2[C@H]1CC/C(COC(=O)NCc1ccc(Cn3c(=O)sn(CCCI)c3=O)cc1)=C\CC[C@@]1(C)O[C@@H]21 ... 1070 nM

Turning to the following compound.
Which value of GI50 has been reported for "Cc1ccc(CNc2ccc(Cl)cc2NCc2ccc(C)c(O)c2)cc1O" in the records?
6590 nM

###

Test system: NCI-H522 lung
Test: NCI tumour cell line growth inhibition, 48 h
Measured Property: TGI (µM)
Give the number; µM is assumed, so skip it.

N#CSc1c[nH]c2cccc(/C=C/C(=O)/C=C(O)/C=C/c3cccc4[nH]cc(SC#N)c34)c12 ... 0.47

Which value of TGI has been reported for "Fc1cnccc1-c1nc2ccc3[nH]ncc3c2c2c1CCCC2" in the records?
8.76

###

Test system: SNB-19 CNS
Assay: NCI tumour cell line growth inhibition, 48 h
Where a SMILES comes first, the peptide text is derived from it. The star is where a group is joined. Boc = CC(C)(C)OC(=O)*; OtBu = CC(C)(C)O*
Measured Property: TGI

CC(C)(C)OC(=O)CC(NC(=O)OC(C)(C)C)C(=O)NC(Cc1ccccc1)C(N)=O (stereo not given) (Boc-Asp(OtBu)-Phe-NH2; configuration not given here) ... > 100 µM
COc1ccc(Cc2c3cc(OC)c(OC)cc3cc[n+]2C)cc1 ... > 31.4 µM
Cc1cccc2c(=O)c3cccc(CC(=O)O)c3oc12 ... > 100 µM
O=c1oc2cc(O)ccc2c(O)c1C(c1ccc(/C=C/c2ccccc2)cc1)c1c(O)c2ccc(O)cc2oc1=O ... > 100 µM
C=C1C(=O)O[C@H]2[C@H]1CC/C(COC(=O)NCc1ccc(Cn3c(=O)sn(CCCI)c3=O)cc1)=C\CC[C@@]1(C)O[C@@H]21 ... 13.8 µM
O=c1[nH]c2c(ccc3cnccc32)c2c1CCC2 ... > 100 µM
COC(=O)c1c(C(=O)OC)c2ccccn2c1-c1cc(C)cc2c1C(=O)C=CC2=O ... 18.6 µM
CCOC(=O)c1c2ccccc2n2c(=O)n(-c3ccccc3)nnc12 ... > 100 µM

Which value of TGI has been reported for N/C(=N\O)c1cn(C2OC(CO)C(O)C2O)c2ncnc(N)c12 (stereo not given) in the records?
> 100 µM

Which value of TGI has been reported for "NCCCc1nonc1C(=O)O" in the records?
> 100 µM

Which value of TGI has been reported for CC1=C(C(N)=O)C(c2ccncc2)C(C#N)C(=O)N1 (stereo not given) in the records?
> 100 µM

Which value of TGI has been reported for "CCOC(=O)/C(C#N)=c1/s/c(=C(\O)N/N=C/c2ccc(OC)cc2)c(=N)n1-c1ccccc1" in the records?
> 100 µM

Which value of TGI has been reported for "CC(C)CC(=O)O[C@H]1C(=O)O[C@@H]2C[C@H]3[C@H](C)C(=O)C(O[C@@H]4O[C@H](CO)[C@@H](O)[C@H](O)[C@H]4O)=C[C@]3(C)[C@H]3[C@@H](O)[C@H](O)[C@]4(C(=O)O)OC[C@]32[C@@H]14" in the records?
> 100 µM

Which value of TGI has been reported for "Cc1n[nH]c(C)c1-c1c(C)n[nH]c1C" in the records?
5.13 µM

Which value of TGI has been reported for N#CC1(C2CC(=O)N(c3ccccc3)C2=O)CCCCC1=O (stereo not given) in the records?
> 100 µM
